Molecular target: Golgi α-mannosidase II from Drosophila melanogaster (dGMII) (Drosophila melanogaster)
Construct: His tag; made in house; host or cells: Drosophila Schneider 2 (S2) cells, secreted into the medium
Test: fluorometric enzyme inhibition assay with dGMII (4-MU-Man substrate)
Type: biochemical
Protocol: Inhibition assays with dGMII were performed at pH 5.75 in MES buffer (40 mM), supplemented with bovine serum albumin 1.1% (0.1% final concentration in MES buffer) and ZnSO4-solution 1.1% (0.1% final concentration in MES buffer). […] The release of 4-methylumbelliferone was measured for 15 min by fluorescence spectroscopy using Greiner 96 Flat Bottom Black Polystyrol plates and a Tecan Reader Infinite F200 PRO equipped with a filter system (355 nm excitation and 485 nm emission). […]

- compound: "O[C@H]1[C@H]2[C@H](O)CCCN2C[C@H]1O [swainsonine, reference compound]"
  display.unit: "nM"
  IC50: 34

----------
biological target: Golgi α-mannosidase II from Drosophila melanogaster (dGMII) (Drosophila melanogaster, UniProt Q24451); construct: His tag; made in house; host or cells: Drosophila Schneider 2 (S2) cells, secreted into the medium; test: fluorometric enzyme inhibition assay with dGMII (4-MU-Man substrate); type: biochemical; conditions: dGMII, 4-MU-Man substrate; read-out: IC50
Sequence (Q24451 76-1108 limits assumed): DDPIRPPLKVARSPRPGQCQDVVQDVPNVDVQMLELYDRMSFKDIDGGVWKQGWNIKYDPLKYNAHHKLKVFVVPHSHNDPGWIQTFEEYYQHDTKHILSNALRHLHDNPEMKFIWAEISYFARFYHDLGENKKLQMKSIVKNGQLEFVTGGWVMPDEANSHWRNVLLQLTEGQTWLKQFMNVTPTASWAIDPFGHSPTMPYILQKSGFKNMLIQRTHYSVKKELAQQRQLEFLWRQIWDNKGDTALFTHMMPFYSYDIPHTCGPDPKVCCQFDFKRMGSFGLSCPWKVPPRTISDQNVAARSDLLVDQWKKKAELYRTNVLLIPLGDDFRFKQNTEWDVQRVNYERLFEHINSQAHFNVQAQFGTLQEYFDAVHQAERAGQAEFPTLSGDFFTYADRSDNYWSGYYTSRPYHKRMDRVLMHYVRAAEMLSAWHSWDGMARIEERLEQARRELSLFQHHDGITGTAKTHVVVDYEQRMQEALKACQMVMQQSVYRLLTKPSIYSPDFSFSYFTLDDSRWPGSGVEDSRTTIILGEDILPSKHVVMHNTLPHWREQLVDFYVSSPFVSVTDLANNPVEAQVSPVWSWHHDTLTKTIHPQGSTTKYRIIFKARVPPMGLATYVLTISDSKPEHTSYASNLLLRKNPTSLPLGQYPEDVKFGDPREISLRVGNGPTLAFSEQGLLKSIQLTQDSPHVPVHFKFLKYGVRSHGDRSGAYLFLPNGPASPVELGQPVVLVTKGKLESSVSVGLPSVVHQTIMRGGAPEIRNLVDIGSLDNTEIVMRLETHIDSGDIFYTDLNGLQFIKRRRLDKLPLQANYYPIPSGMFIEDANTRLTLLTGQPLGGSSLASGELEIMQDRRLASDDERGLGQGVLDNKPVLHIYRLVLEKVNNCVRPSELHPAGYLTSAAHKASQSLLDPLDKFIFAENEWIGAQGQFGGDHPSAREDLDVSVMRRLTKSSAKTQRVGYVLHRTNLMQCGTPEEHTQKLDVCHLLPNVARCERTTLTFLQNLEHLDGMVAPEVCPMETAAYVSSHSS
pIC50: −log10 of the molar value.

- molecule: "N#CC(C(=O)C1CCCCN1C(=O)c1cccnc1)c1ccccn1 (stereo not shown) [Compound 18]"
  pIC50: 3.66
